B1: 1ZHC (parent)
chain: HEFRDEISVLKANNPHFDKIFEKHNQLDDDIKTAEQQNASDAEVSHMKKQKLKLKDEIHSMIIEYREK

# Variants of: B1
# Experiment Description: folding stability dG (cDNA display proteolysis); higher = more stable
# Measurement Conditions: PBS, room temperature
Observation Type: folding stability dG (kcal/mol)
Write the answer as a number in kcal/mol, unit excluded.

HEFRDEISVLKANNPHFDKIFEKHNQLDDDIKTAEQQNASDAEVSHMKYQKLKLKDEIHSMIIEYREK [K49Y] = 1.2
HEFRDEISVLKANNPHFDKIFEKHNQLDDDIKTAEQQNASDAEVSHMKKQKLKMKDEIHSMIIEYREK [L54M] = -0.648
HEFRDEISVLKANNPHFKKIFEKHNQLDDDIKTAEQQNASDAEVSHMKKQKLKLKDEIHSMIIEYREK [D18K] = 2.23
HEFRDEISVLKANNPHFDKIFEKHNQLDDDIKTAEQQNASDAEVSHMKKQKLKLKDWIHSMIIEYREK [E57W] = 0.602
HEFRDEISVLKANNPHFDKIFEKHNMLDDDIKTAEQQNASDAEVSHMKKQKLKLKDEIHSMIIEYREK [Q26M] = -0.061

Looking up HEFKDEISVLKANNPHFDKIFEKHNQLDDDIKTAEQQNASDAEVSHMKKQKLKLKDEIHSMIIEYREK [R4K] , I found its folding stability dG recorded as 0.923

Looking up HEFRDEISVLKANNPHFDKIFEKQNQLDDDIKTAEQQNASDAEVSHMKKQKLKLKDEIHSMIIEYREK [H24Q] , I found its folding stability dG recorded as 0.285

Looking up HEFRDEISVLKANNPHFDKIFEKHNQLDDDIKTAEQQNASDAEVSHMKKQKLKYKDEIHSMIIEYREK [L54Y] , I found its folding stability dG recorded as 0.165

Looking up HEFRDEISVLKANNPHFDKIFEKHNQLDDDIKTAEQQNASDASVSHMKKQKLKLKDEIHSMIIEYREK [E43S] , I found its folding stability dG recorded as 0.44

Looking up YEFRDEISVLKANNPHFDKIFEKHNQLDDDIKTAEQQNASDAEVSHMKKQKLKLKDEIHSMIIEYREK [H1Y] , I found its folding stability dG recorded as 0.73

Looking up HNFRDEISVLKANNPHFDKIFEKHNQLDDDIKTAEQQNASDAEVSHMKKQKLKLKDEIHSMIIEYREK [E2N] , I found its folding stability dG recorded as 0.525

Looking up HEFRDEISVLKANNPHFDKIFEKHNQLDYDIKTAEQQNASDAEVSHMKKQKLKLKDEIHSMIIEYREK [D29Y] , I found its folding stability dG recorded as 1.25

Looking up HEFIDEISVLKANNPHFDKIFEKHNQLDDDIKTAEQQNASDAEVSHMKKQKLKLKDEIHSMIIEYREK [R4I] , I found its folding stability dG recorded as 1.02

Looking up HEFRDEISVLKANNPHFDKIFEKHNQLDDDIKTAEQQNASDAEVSHWKKQKLKLKDEIHSMIIEYREK [M47W] , I found its folding stability dG recorded as 0.576

Looking up HEFRDEISVLKANNPHFDKIFEKHNNLDDDIKTAEQQNASDAEVSHMKKQKLKLKDEIHSMIIEYREK [Q26N] , I found its folding stability dG recorded as 0.184

Looking up HEFRDEISVLKANNPHFDKIFEKHNQLDDMIKTAEQQNASDAEVSHMKKQKLKLKDEIHSMIIEYREK [D30M] , I found its folding stability dG recorded as 1.66

Looking up HEFRDEKSVLKANNPHFDKIFEKHNQLDDDIKTAEQQNASDAEVSHMKKQKLKLKDEIHSMIIEYREK [I7K] , I found its folding stability dG recorded as -0.95

Looking up HEFRDEISVLKANNPHFDKIFEKHNQLDDDIKTAEQQNASDAEVSHMKKQGLKLKDEIHSMIIEYREK [K51G] , I found its folding stability dG recorded as -0.631

Looking up HEFRDEISVLKANNPHFDKIFEKHNQLDDDIKTAEQQNASDAEVSHMKKQLLKLKDEIHSMIIEYREK [K51L] , I found its folding stability dG recorded as 2.36
